The reported numbers originate from patent US7009052B2.

Tgt: androgen receptor (Homo sapiens, UniProt P10275)
Protocol Details: AR Antagonist Cell Assay (MMTV-luciferase reporter, DHT-induced)
Test Context: MDA-MB453-MMTV clone 54-19 cells, 100 pM DHT, 17 hr
Endpoint: IC50 (µM)

COc1cc(NS(=O)(=O)c2ccc3c(c2)c(C(F)(F)F)cc(=O)n3C)cc(OC)c1 [Example 36] : 2.72

(A) O=c1cc(C(F)(F)F)c2cc(S(=O)(=O)Nc3cccc(OC(F)(F)F)c3)ccc2[nH]1 [Example 112]
(B) CCN(Cc1ccccc1)S(=O)(=O)c1ccc2c(c1)c(C(F)(F)F)cc(=O)n2C [Example 10]
Identify the entry with the larger IC50. Options: A and B Mark your selection by writing its label.
B
(B: 6.35 µM, A: 0.12 µM)

* * *

Tgt: androgen receptor (Homo sapiens)
Protocol Details: AR Antagonist Cell Assay (MMTV-luciferase reporter, DHT-induced)
Test Context: MDA-MB453-MMTV clone 54-19 cells, 100 pM DHT, 17 hr
Endpoint: IC50

// solved cases for IC50 follow
CC(=O)c1cccc(NS(=O)(=O)c2ccc3c(c2)c(C(F)(F)F)cc(=O)n3C)c1 : 4.23 µM
Cc1cccc(NS(=O)(=O)c2ccc3c(c2)c(C(F)(F)F)cc(=O)n3C)c1 : 0.76 µM

What value of measured IC50 is listed for Cn1c(=O)cc(C(F)(F)F)c2cc(S(=O)(=O)Nc3ccccc3CO)ccc21 ?
> 10 µM

// same read-out, input: O=c1cc(C(F)(F)F)c2cc(S(=O)(=O)Nc3cccnc3)ccc2[nH]1
> 10 µM

// same read-out, input: Cc1cccc(C)c1NS(=O)(=O)c1ccc2c(c1)c(C(F)(F)F)cc(=O)n2C
> 10 µM

// same read-out, input: Cc1ccc(F)c(CNS(=O)(=O)c2ccc3[nH]c(=O)cc(C(F)(F)F)c3c2)c1Cl
> 10 µM

// same read-out, input: Cn1c(=O)cc(C(F)(F)F)c2cc(S(=O)(=O)N(Cc3ccccc3)Cc3ccccc3)ccc21
> 10 µM

// same read-out, input: Cn1c(=O)cc(C(F)(F)F)c2cc(S(=O)(=O)Nc3cccc(C(F)(F)F)c3)ccc21
0.93 µM

* * *

Tgt: androgen receptor (Homo sapiens, UniProt P10275)
Protocol Details: AR Antagonist Cell Assay (MMTV-luciferase reporter, DHT-induced)
Test Context: MDA-MB453-MMTV clone 54-19 cells, 100 pM DHT, 17 hr
pIC50: −log10 of the molar value.
Endpoint: pIC50

CCCCN(C)S(=O)(=O)c1ccc2[nH]c(=O)cc(C(F)(F)F)c2c1 [Example 76] : 6.68
O=c1cc(C(F)(F)F)c2cc(S(=O)(=O)NCc3ccccc3Sc3ccccc3CO)ccc2[nH]1 [Example 155] : 5.71
CSc1cccc(NS(=O)(=O)c2ccc3c(c2)c(C(F)(F)F)cc(=O)n3C)c1 [Example 29] : 5.43
COc1ccccc1CCNS(=O)(=O)c1ccc2c(c1)c(C(F)(F)F)cc(=O)n2C [Example 58] : 5.27

(P) O=c1cc(C(F)(F)F)c2cc(S(=O)(=O)NCC(c3ccccc3)c3ccccc3)ccc2[nH]1 [Example 159]
(Q) CSc1cccc(NS(=O)(=O)c2ccc3[nH]c(=O)cc(C(F)(F)F)c3c2)c1 [Example 101]
# return whichever of P and Q has the smaller pIC50 Mark your selection by writing its label.
P

* * *

Tgt: UniProt P10275
Protocol Details: AR Antagonist Cell Assay (MMTV-luciferase reporter, DHT-induced)
Test Context: MDA-MB453-MMTV clone 54-19 cells, 100 pM DHT, 17 hr
Endpoint: IC50 (µM)

N#Cc1cccc(NS(=O)(=O)c2ccc3[nH]c(=O)cc(C(F)(F)F)c3c2)c1 : 3.55
O=c1cc(C(F)(F)F)c2cc(S(=O)(=O)NCc3c(F)cccc3F)ccc2[nH]1 : 2.98

* * *

Tgt: androgen receptor (Homo sapiens, UniProt P10275)
Protocol Details: AR Antagonist Cell Assay (MMTV-luciferase reporter, DHT-induced)
Test Context: MDA-MB453-MMTV clone 54-19 cells, 100 pM DHT, 17 hr
pIC50: −log10 of the molar value.
Endpoint: pIC50

(1) Cn1c(=O)cc(C(F)(F)F)c2cc(S(=O)(=O)Nc3ccc(Cl)cc3)ccc21
(2) O=c1cc(C(F)(F)F)c2cc(S(=O)(=O)NCCc3ccccc3)ccc2[nH]1
Identify the entry with the larger pIC50. Options: 1 and 2 Mark your selection by writing its label.
1

* * *

Tgt: UniProt:P10275
Protocol Details: AR Antagonist Cell Assay (MMTV-luciferase reporter, DHT-induced)
Test Context: MDA-MB453-MMTV clone 54-19 cells, 100 pM DHT, 17 hr
Endpoint: IC50 (µM)

// solved cases for IC50 follow
Cn1c(=O)cc(C(F)(F)F)c2cc(S(=O)(=O)NCc3ccccc3C(F)(F)F)ccc21 : 3.92
CC(C)OCCCNS(=O)(=O)c1ccc2[nH]c(=O)cc(C(F)(F)F)c2c1 : 1.6
Cn1c(=O)cc(C(F)(F)F)c2cc(S(=O)(=O)Nc3ccc(-n4ccc(C(F)(F)F)n4)cc3)ccc21 : 2.96
O=c1cc(C(F)(F)F)c2cc(S(=O)(=O)NCc3ccc(F)cc3Cl)ccc2[nH]1 : 5.65

(I) COc1cccc(NS(=O)(=O)c2ccc3[nH]c(=O)cc(C(F)(F)F)c3c2)c1
(II) CC(C)c1ccc(NS(=O)(=O)c2ccc3c(c2)c(C(F)(F)F)cc(=O)n3C)cc1
Identify the entry with the larger IC50. Options: I and II Mark your selection by writing its label.
II
(II: 8.61 µM, I: 0.34 µM)

* * *

Tgt: androgen receptor (Homo sapiens, UniProt P10275)
Protocol Details: AR Antagonist Cell Assay (MMTV-luciferase reporter, DHT-induced)
Test Context: MDA-MB453-MMTV clone 54-19 cells, 100 pM DHT, 17 hr
pIC50: −log10 of the molar value.
Endpoint: pIC50

CC(C)CCNS(=O)(=O)c1ccc2[nH]c(=O)cc(C(F)(F)F)c2c1 [Example 121] : 6.55
O=c1cc(C(F)(F)F)c2cc(S(=O)(=O)NC3CCc4ccccc43)ccc2[nH]1 (centres unmarked) [Example 130] : 5.99

(A) CN(CCC#N)S(=O)(=O)c1ccc2[nH]c(=O)cc(C(F)(F)F)c2c1 [Example 77]
(B) O=c1cc(C(F)(F)F)c2cc(S(=O)(=O)NCc3ccccc3Br)ccc2[nH]1 [Example 156]
(C) O=c1cc(C(F)(F)F)c2cc(S(=O)(=O)Nc3cccc(C(F)(F)F)c3)ccc2[nH]1 [Example 109]
Order the records so the highest pIC50 appears first and the lowest last. Arrange the labels as the request states and list them.
C, A, B

* * *

Tgt: androgen receptor (Homo sapiens)
Sequence (P10275 1-920 Q868H): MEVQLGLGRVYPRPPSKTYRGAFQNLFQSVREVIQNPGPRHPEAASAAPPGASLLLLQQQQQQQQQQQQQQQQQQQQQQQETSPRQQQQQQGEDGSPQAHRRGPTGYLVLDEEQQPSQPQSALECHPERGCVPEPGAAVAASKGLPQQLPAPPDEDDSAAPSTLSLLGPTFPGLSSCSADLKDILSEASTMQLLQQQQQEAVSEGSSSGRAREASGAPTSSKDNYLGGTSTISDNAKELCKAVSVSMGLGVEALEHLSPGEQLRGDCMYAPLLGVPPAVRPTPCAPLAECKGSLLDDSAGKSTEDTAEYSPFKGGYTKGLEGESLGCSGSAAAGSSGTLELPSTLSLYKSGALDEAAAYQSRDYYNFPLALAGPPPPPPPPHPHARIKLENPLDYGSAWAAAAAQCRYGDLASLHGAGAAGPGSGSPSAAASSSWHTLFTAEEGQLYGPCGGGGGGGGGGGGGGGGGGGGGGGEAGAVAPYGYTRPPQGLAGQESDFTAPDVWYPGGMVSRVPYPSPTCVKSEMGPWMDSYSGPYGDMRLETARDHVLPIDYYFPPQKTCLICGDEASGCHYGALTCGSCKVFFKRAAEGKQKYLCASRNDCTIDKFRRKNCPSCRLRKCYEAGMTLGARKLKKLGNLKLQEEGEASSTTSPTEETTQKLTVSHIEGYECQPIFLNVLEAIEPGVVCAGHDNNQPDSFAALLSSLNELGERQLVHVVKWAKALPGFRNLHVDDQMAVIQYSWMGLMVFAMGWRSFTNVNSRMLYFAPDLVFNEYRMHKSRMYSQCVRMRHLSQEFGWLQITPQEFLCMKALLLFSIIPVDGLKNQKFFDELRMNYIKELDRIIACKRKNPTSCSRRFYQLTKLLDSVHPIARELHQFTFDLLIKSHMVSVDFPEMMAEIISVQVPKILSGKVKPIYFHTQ
Protocol Details: AR Antagonist Cell Assay (MMTV-luciferase reporter, DHT-induced)
Test Context: MDA-MB453-MMTV clone 54-19 cells, 100 pM DHT, 17 hr
Endpoint: IC50 (nM)

// solved cases for IC50 follow
CC(CNS(=O)(=O)c1ccc2[nH]c(=O)cc(C(F)(F)F)c2c1)c1ccccc1 (centres unmarked) : 350
Cn1c(=O)cc(C(F)(F)F)c2cc(S(=O)(=O)NC3CCc4ccccc43)ccc21 (centres unmarked) : 4310
O=c1cc(C(F)(F)F)c2cc(S(=O)(=O)NCCc3cccs3)ccc2[nH]1 : 1900

(1) CCc1ccc(NS(=O)(=O)c2ccc3c(c2)c(C(F)(F)F)cc(=O)n3C)cc1
(2) O=c1cc(C(F)(F)F)c2cc(S(=O)(=O)Nc3ccc4c(c3)CCC4)ccc2[nH]1
# return whichever of 1 and 2 has the smaller IC50 Mark your selection by writing its label.
2

(1) COc1cccc(NS(=O)(=O)c2ccc3c(c2)c(C(F)(F)F)cc(=O)n3C)c1
(2) Cn1c(=O)cc(C(F)(F)F)c2cc(S(=O)(=O)NCCc3c[nH]c4ccccc34)ccc21
(3) CC(CNS(=O)(=O)c1ccc2c(c1)c(C(F)(F)F)cc(=O)n2C)c1ccccc1 (centres unmarked)
(4) CC(C)Oc1cccc(NS(=O)(=O)c2ccc3[nH]c(=O)cc(C(F)(F)F)c3c2)c1
Order the records so the highest IC50 appears first and the lowest last. Arrange the labels as the request states and list them.
2, 3, 1, 4
(2: 6330 nM, 3: 2730 nM, 1: 1130 nM, 4: 450 nM)

(a) Cn1c(=O)cc(C(F)(F)F)c2cc(S(=O)(=O)Nc3ccc(CC#N)cc3)ccc21
(b) O=c1cc(C(F)(F)F)c2cc(S(=O)(=O)Nc3ccc(F)cc3)ccc2[nH]1
Identify the entry with the larger IC50. Options: a and b Mark your selection by writing its label.
b
